- ASSAY_TEXT: qHTS for Inhibitors of the Functional Ribonucleoprotein Complex (vRNP) of Lymphocytic Choriomeningitis Arenaviruses (LCMV): Viability assay - alamar blue signal for LCMV Primary Screen (AID 1347085); also: nearly all actives have a fitted effect of over 80% in size
- EXPERIMENTAL_CONTEXT: alamar blue viability counter-screen, LCMV vRNP screen cells; series mostly up to 57.5 µM
Inconclusive results are not listed. Activity calls are given as the source filed them. Calls follow the shape of the full dose curve; tested in HEK293 reporter line.
Respond using exactly one of the listed classes: Y = active, N = inactive

Cc1cc(=O)c2c(O)c3c(O)cc(O)c4c5c(O)cc(O)c6c(O)c7c(=O)cc(C)c8c1c2c(c34)c(c65)c78 = N
COc1cc(C(=O)OC2CC3CCC2(C)C3(C)C)ccc1OC(C)=O (centres undefined) = N

Continue with the molecule presented below.
Short answer needed: outcome of this test for CN1CC(O)C(O)C(O)C1CO (centres undefined) ?
N

---

- ASSAY_TEXT: qHTS for Inhibitors of the Functional Ribonucleoprotein Complex (vRNP) of Lassa (LASV) Arenavirus: Viability assay - alamar blue signal for LASV Primary Screen (AID 1347083); also: nearly all actives have a fitted effect of over 80% in size
- EXPERIMENTAL_CONTEXT: cell viability, alamar blue fluorescence (LASV minigenome counter-screen); series mostly up to 57.5 µM
Records with an inconclusive call do not appear. Calls of active or inactive are those of the source. Calls follow the shape of the full dose curve; tested in HEK293 reporter line.
Use one of these outcomes when replying: active, inactive

CC1=CC(=O)[C@H]2C[C@@H]1C2(C)C = inactive
CNC1CCC(N(Cc2cccc(-c3ccncc3)c2)C(=O)c2sc3c(F)ccc(F)c3c2Cl)CC1 (centres undefined) = active
CC(C)(O)CC(=O)NCCn1ccc2ncnc(Nc3ccc(Oc4cccc(C(F)(F)F)c4)c(Cl)c3)c21 = inactive
COc1cc([C@@H]2c3cc4c(cc3[C@@H](O[C@@H]3O[C@@H]5CO[C@@H](C)O[C@@H]5[C@H](O)[C@@H]3O)[C@H]3COC(=O)[C@H]23)OCO4)cc(OC)c1O = active
c1ccc2c(c1)CCC[C@H]2Nc1nc2ccccc2[nH]1 = inactive

How was `COc1cc(O)cc2c1[C@@H]1Oc3c(ccc(O)c3CC=C(C)C)[C@@H]1CO2` classified in this test?
inactive

Recorded test call requested for `O=c1ccc2cc3ccoc3c(O)c2o1`
inactive

Tell me the assay call for `C[C@H](NCc1ccc(OCc2cccc(F)c2)cc1)C(N)=O` please.
active

What did the test return for `COc1ccc(-n2nc(C(N)=O)c3c2C(=O)N(c2ccc(N4CCCCC4=O)cc2)CC3)cc1` ?
inactive

---

- ASSAY_TEXT: qHTS for Inhibitors of the Functional Ribonucleoprotein Complex (vRNP) of Lassa (LASV) Arenavirus: LASV Primary Screen - GLuc reporter signal (AID 1347082); also: nearly all actives have a fitted effect of over 60% in size
- EXPERIMENTAL_CONTEXT: LASV minigenome vRNP, Gaussia luciferase reporter; series mostly up to 57.5 µM
Records with an inconclusive call do not appear. Active and inactive are the calls of the source. Calls follow the shape of the full dose curve; tested in HEK293 reporter line.
Parameter call: string, one of 1.0 = active, 0.0 = inactive

Reference set (3 entries):
CC(C)[C@H](CO)Nc1nc(Nc2cccc(Cl)c2)c2ncn(C(C)C)c2n1 = 0.0
O=C1NCCc2[nH]c(-c3ccncc3)cc21 = 1.0
COc1cc2ncnc(Nc3cccc(Cl)c3)c2cc1OC = 0.0

State the result this test recorded for `COc1ccc(-c2ccc(N)[n+](CCCC(=O)O)n2)cc1` .
0.0

Please state the recorded outcome for this compound: OCC1O[C@H](O)C(Cl)C(O)C1O (stereo partly specified)
0.0

Status in this test for `CC1=CC(=O)O[C@@H]1[C@@]1(C)C[C@H]2OC(=O)C[C@H]3[C@@H](C)C(=O)C(O)=C1[C@@]23CO` ?
0.0

Check the results log: what was the call for `Cc1ccc2oc3ccccc3c(=O)c2c1` ?
0.0

Name the outcome recorded for `COC1=CC(=O)[C@@]2([C@@H]1O)[C@@H](Cl)C[C@]13C(OC)=C(OC)C(=O)C[C@]21CCN3C` in the assay.
0.0

Could you kindly confirm the outcome this assay logged for `O=c1[nH]c2cc(Cl)ccc2c(O)c1-c1ccc(Oc2ccccc2)cc1` ?
0.0

For `O=C1c2ccccc2C(=O)c2c(O)ccc(O)c21` , which call appears in the assay record?
0.0

Just curious, what result did `O=c1cc(-c2ccccc2)c2c(O)cc(O)cc2o1` get here?
0.0
